experiment: Pharmacokinetics of dexlansoprazole injection after single intravenous infusion in healthy Chinese subjects
Type: in vivo, human
condition-notes: human, plasma, iv, 20 mg, 20 mg iv, Total (n = 23)
measure: half-life (h)
Only the number, expressed in h, is required.

Recall and state the measured half-life for Cc1c(OCC(F)(F)F)ccnc1C[S@@+]([O-])c1nc2ccccc2[nH]1 . 1.41

###

experiment: Pharmacokinetics of dexlansoprazole injection after single intravenous infusion in healthy Chinese subjects
Type: in vivo, human
condition-notes: human, plasma, iv, 20 mg, 20 mg iv, CYP2C19 hetEM (n = 9)
measure: clearance (mL/min)
Please state the figure in mL/min; there is no need to write the unit.

Find the measured clearance of Cc1c(OCC(F)(F)F)ccnc1C[S@@+]([O-])c1nc2ccccc2[nH]1 [dexlansoprazole] and report it. 76.7

###

experiment: Pharmacokinetics of dexlansoprazole injection after single intravenous infusion in healthy Chinese subjects
Assay type: in vivo, human
condition-notes: human, plasma, iv, 20 mg, 20 mg iv, CYP2C19 hetEM (n = 9)
Experimental: Dexlansoprazole injection (30 mg per vial) used in the PK and PD study was manufactured by Nanjing Yoko Pharma Co., Ltd. (Nanjing, China). Subjects received an intravenous infusion of 20 or 30 mg dexlansoprazole injection in sterile saline solution (100 mL/h, 60 min). The study drug was administrated with an infusing pump (SA213, Lifepum, Beijing, China) and given through an intravenous catheter in the antecubital vein opposite to the one from which blood samples were taken. […]
measure: Vd (L)
Return type: number; implicit unit L.

Indicate the recorded Vd value for this molecule: Cc1c(OCC(F)(F)F)ccnc1C[S@@+]([O-])c1nc2ccccc2[nH]1 [dexlansoprazole] 8.78

###

experiment: Pharmacokinetics of dexlansoprazole injection after single intravenous infusion in healthy Chinese subjects
Assay type: in vivo, human
condition-notes: human, plasma, iv, 20 mg, 20 mg iv, CYP2C19 hetEM (n = 9)
Method: Dexlansoprazole injection (30 mg per vial) used in the PK and PD study was manufactured by Nanjing Yoko Pharma Co., Ltd. (Nanjing, China). Subjects received an intravenous infusion of 20 or 30 mg dexlansoprazole injection in sterile saline solution (100 mL/h, 60 min). The study drug was administrated with an infusing pump (SA213, Lifepum, Beijing, China) and given through an intravenous catheter in the antecubital vein opposite to the one from which blood samples were taken. […]
measure: half-life
Please answer using the number first and the unit second.

Check the records and state half-life for Cc1c(OCC(F)(F)F)ccnc1C[S@@+]([O-])c1nc2ccccc2[nH]1 1.37 h

###

experiment: Pharmacokinetics of dexlansoprazole injection after single intravenous infusion in healthy Chinese subjects
Format: in vivo, human
condition-notes: human, plasma, iv, 30 mg, 30 mg iv, CYP2C19 PM (n = 7)
measure: half-life (h)
Give the number; h is assumed, so skip it.

Please indicate half-life recorded for Cc1c(OCC(F)(F)F)ccnc1C[S@@+]([O-])c1nc2ccccc2[nH]1 3.96

###

experiment: Pharmacokinetics of dexlansoprazole injection after single intravenous infusion in healthy Chinese subjects
Type: in vivo, human
condition-notes: human, plasma, iv, 20 mg, 20 mg iv, CYP2C19 homEM (n = 8)
measure: Vd (L)
Write the answer as a number in L, unit excluded.

Return value of Vd for input Cc1c(OCC(F)(F)F)ccnc1C[S@@+]([O-])c1nc2ccccc2[nH]1 [dexlansoprazole] , no commentary. 10.4

###

experiment: Pharmacokinetics of dexlansoprazole injection after single intravenous infusion in healthy Chinese subjects
Type: in vivo, human
condition-notes: human, plasma, iv, 20 mg, 20 mg iv, CYP2C19 PM (n = 6)
measure: clearance (mL/min)
// units = mL/min; emit number, no label

Please report the measured clearance for Cc1c(OCC(F)(F)F)ccnc1C[S@@+]([O-])c1nc2ccccc2[nH]1 34.7

###

experiment: Pharmacokinetics of dexlansoprazole injection after single intravenous infusion in healthy Chinese subjects
Type: in vivo, human
condition-notes: human, plasma, iv, 30 mg, 30 mg iv, Total (n = 28)
measure: clearance (mL/min)
Give the number; mL/min is assumed, so skip it.

Quickly give me recorded clearance for Cc1c(OCC(F)(F)F)ccnc1C[S@@+]([O-])c1nc2ccccc2[nH]1 78.2

###

experiment: Pharmacokinetics of dexlansoprazole injection after single intravenous infusion in healthy Chinese subjects
Format: in vivo, human
condition-notes: human, plasma, iv, 30 mg, 30 mg iv, CYP2C19 hetEM (n = 10)
Procedure: Dexlansoprazole injection (30 mg per vial) used in the PK and PD study was manufactured by Nanjing Yoko Pharma Co., Ltd. (Nanjing, China). Subjects received an intravenous infusion of 20 or 30 mg dexlansoprazole injection in sterile saline solution (100 mL/h, 60 min). The study drug was administrated with an infusing pump (SA213, Lifepum, Beijing, China) and given through an intravenous catheter in the antecubital vein opposite to the one from which blood samples were taken. […]
measure: Vd (L)
Write the answer as a number in L, unit excluded.

State its Vd: Cc1c(OCC(F)(F)F)ccnc1C[S@@+]([O-])c1nc2ccccc2[nH]1 8.2

###

experiment: Pharmacokinetics of dexlansoprazole injection after single intravenous infusion in healthy Chinese subjects
Assay type: in vivo, human
condition-notes: human, plasma; 20 mg iv, CYP2C19 PM (n = 6); read-out: AUC0-tCon-t
measure: AUC (ng·h/mL)
Write down the numeric answer in ng·h/mL and omit the unit.

Let me know recorded AUC for Cc1c(OCC(F)(F)F)ccnc1C[S@@+]([O-])c1nc2ccccc2[nH]1 [dexlansoprazole] , thanks. 9490

###

experiment: Pharmacokinetics of dexlansoprazole injection after single intravenous infusion in healthy Chinese subjects
Format: in vivo, human
condition-notes: human, plasma, iv, 20 mg, 20 mg iv, CYP2C19 PM (n = 6)
measure: half-life (h)
Use h as the unit, but write only the number.

Query half-life for Cc1c(OCC(F)(F)F)ccnc1C[S@@+]([O-])c1nc2ccccc2[nH]1 3.65

###

experiment: Pharmacokinetics of dexlansoprazole injection after single intravenous infusion in healthy Chinese subjects
Type: in vivo, human
condition-notes: human, plasma, iv, 20 mg, 20 mg iv, Total (n = 23)
measure: Vd
Could you give the number and then its unit, please?

Return Vd for the following compound: Cc1c(OCC(F)(F)F)ccnc1C[S@@+]([O-])c1nc2ccccc2[nH]1 9.62 L

###

experiment: Pharmacokinetics of dexlansoprazole injection after single intravenous infusion in healthy Chinese subjects
Format: in vivo, human
condition-notes: human, plasma, iv, 30 mg, 30 mg iv, CYP2C19 hetEM (n = 10)
measure: half-life
Remember to put the unit after the number in your answer.

Give recorded half-life. Cc1c(OCC(F)(F)F)ccnc1C[S@@+]([O-])c1nc2ccccc2[nH]1 [dexlansoprazole] 1.56 h

###

experiment: Pharmacokinetics of dexlansoprazole injection after single intravenous infusion in healthy Chinese subjects
Type: in vivo, human
condition-notes: human, plasma, iv, 30 mg, 30 mg iv, CYP2C19 PM (n = 7)
measure: Vd
Put down the number, then write its unit next to it.

Give me measured Vd, please, for this molecule: Cc1c(OCC(F)(F)F)ccnc1C[S@@+]([O-])c1nc2ccccc2[nH]1 9.58 L

###

experiment: Pharmacokinetics of dexlansoprazole injection after single intravenous infusion in healthy Chinese subjects
Format: in vivo, human
condition-notes: human, plasma; 20 mg iv, CYP2C19 homEM (n = 8)
measure: Tmax (h)
State the answer as a number, implicitly in h.

Determine its reported Tmax: Cc1c(OCC(F)(F)F)ccnc1C[S@@+]([O-])c1nc2ccccc2[nH]1 1

###

experiment: Pharmacokinetics of dexlansoprazole injection after single intravenous infusion in healthy Chinese subjects
Format: in vivo, human
condition-notes: human, plasma, iv, 30 mg, 30 mg iv, Total (n = 28)
Experimental: Dexlansoprazole injection (30 mg per vial) used in the PK and PD study was manufactured by Nanjing Yoko Pharma Co., Ltd. (Nanjing, China). Subjects received an intravenous infusion of 20 or 30 mg dexlansoprazole injection in sterile saline solution (100 mL/h, 60 min). The study drug was administrated with an infusing pump (SA213, Lifepum, Beijing, China) and given through an intravenous catheter in the antecubital vein opposite to the one from which blood samples were taken. […]
measure: Vd
Number first, unit second: that is the form wanted.

Please indicate Vd recorded for Cc1c(OCC(F)(F)F)ccnc1C[S@@+]([O-])c1nc2ccccc2[nH]1 9.78 L

###

experiment: Pharmacokinetics of dexlansoprazole injection after single intravenous infusion in healthy Chinese subjects
Assay type: in vivo, human
condition-notes: human, plasma, iv, 20 mg, 20 mg iv, Total (n = 23)
measure: clearance (mL/min)
Numeric only. Scale: mL/min

// Input: Cc1c(OCC(F)(F)F)ccnc1C[S@@+]([O-])c1nc2ccccc2[nH]1 . Output its clearance only. 90.2

###

experiment: Pharmacokinetics of dexlansoprazole injection after single intravenous infusion in healthy Chinese subjects
Format: in vivo, human
condition-notes: human, plasma, iv, 20 mg, 20 mg iv, CYP2C19 PM (n = 6)
measure: Vd (L)
The response must be a number in L with no trailing unit.

Provide one value: measured Vd of Cc1c(OCC(F)(F)F)ccnc1C[S@@+]([O-])c1nc2ccccc2[nH]1 11
